Test Name: Part 1 SAD: plasma pharmacokinetics after single oral dose
Type: in vivo, human
Assay Conditions: human, plasma, oral; 25 mg single dose, geometric mean
Measurement Kind: AUC(0-inf)

AUC(0-inf) recorded for this molecule, CS(=O)(=O)N[C@H]1CCCN2C(=O)COc3ccccc3C3CCC(CC3)OCC12 (stereo partly shown) , is 274 ng·h/mL

----------
Test Name: Part 5 NT2: plasma pharmacokinetics, single doses
Assay type: in vivo, human
Assay Conditions: human, oral; 25 mg, NT2, plasma, geometric mean, N = 9; read-out: AUC0-24
Measurement Kind: AUC(0-t)

Sample CS(=O)(=O)N[C@H]1CCCN2C(=O)COc3ccccc3C3CCC(CC3)OCC12 (stereo partly shown) ; AUC(0-t) observed: 231 ng·h/mL

----------
Test Name: Part 1 SAD: plasma pharmacokinetics after single oral dose
Type: in vivo, human
Assay Conditions: human, plasma, oral; 25 mg single dose, geometric mean
Measurement Kind: Cmax (ng/mL)
The reply should be a number in ng/mL, with the unit left off.

Recorded Cmax (molecule CS(=O)(=O)N[C@H]1CCCN2C(=O)COc3ccccc3C3CCC(CC3)OCC12 (stereo partly shown) [Compound A] ): 23.1

----------
Test Name: Part 4 NT1: plasma pharmacokinetics, single doses
Format: in vivo
Assay Conditions: human, oral, NT1, 8 mg single dose, geometric mean, N = 3, read-out: AUC0-24
Measurement Kind: AUC(0-t) (ng·h/mL)
Write the value in ng·h/mL as a bare number.

Memo: CS(=O)(=O)N[C@H]1CCCN2C(=O)COc3ccccc3C3CCC(CC3)OCC12 (stereo partly shown) , reported AUC(0-t): 169

----------
Test Name: Part 1 SAD: plasma pharmacokinetics after single oral dose
Assay type: in vivo, human
Assay Conditions: human, plasma, oral; 15 mg single dose, geometric mean; read-out: C8 (concentration at 8-hour post dose)
Measurement Kind: concentration at 8 h
Param answer (str): number followed by unit.

The molecule identified as CS(=O)(=O)N[C@H]1CCCN2C(=O)COc3ccccc3C3CCC(CC3)OCC12 (stereo partly shown) registered its concentration at 8 h at 4.07 ng/mL

----------
Test Name: Part 4 NT1: plasma pharmacokinetics, single doses
Format: in vivo
Assay Conditions: human, oral, NT1, 8 mg single dose, geometric mean, N = 3
Measurement Kind: Cmax
Form field: result (number plus unit)

Cmax measured on CS(=O)(=O)N[C@H]1CCCN2C(=O)COc3ccccc3C3CCC(CC3)OCC12 (stereo partly shown) = 27.9 ng/mL

----------
Test Name: Part 1 SAD: plasma pharmacokinetics after single oral dose
Format: in vivo, human
Assay Conditions: human, plasma, oral; 50 mg single dose, geometric mean, N = 2
Measurement Kind: AUC(0-inf)
Write your answer as a measured quantity: the number, then the unit.

The compound identified as CS(=O)(=O)N[C@H]1CCCN2C(=O)COc3ccccc3C3CCC(CC3)OCC12 (stereo partly shown) [Compound A] registered its AUC(0-inf) at 503 ng·h/mL

----------
Test Name: Part 2 MAD: plasma pharmacokinetics, once daily for 10 days
Type: in vivo, human
Assay Conditions: human, plasma, oral, 25 mg, Day 1, geometric mean; read-out: C8 (concentration at 8-hour postdose)
Measurement Kind: concentration at 8 h (ng/mL)
Give just the number in ng/mL; leave the unit off.

Measured concentration at 8 h, CS(=O)(=O)N[C@H]1CCCN2C(=O)COc3ccccc3C3CCC(CC3)OCC12 (stereo partly shown) [Compound A] : 7.35
